Reference for the values: PubChem BioAssay (EPA / NIEHS)

- measurement.description: ATG_NFI_CIS: Attagene CIS-FACTORIAL HepG2 Assay for human Nuclear Factor I (NFI) (AID 2282989)
- experimental.conditions: HepG2 cis-regulatory reporter, NFI response element transcription; actives raise or lower the signal
Activity calls are given as the source filed them. Rule for the calls: active = hit-call score of the fitted dose curve at least 0.9, where 1 is the maximum; inactive = score below 0.9.
readout.label: AC50

CCOP(=S)(OCC)SCSc1cc(Cl)ccc1Cl = inactive
C[C@]12CC[C@@H](O)C[C@@H]1CC[C@@H]1[C@@H]2CC[C@]2(C)C(=O)CC[C@@H]12 = inactive
NC(=O)c1ccc(N)nc1 = inactive
COC(F)(C(F)(F)C(F)(F)F)C(F)(C(F)(F)F)C(F)(F)F (centres undefined) = inactive
O=CCCl = inactive
CC(C)O.CC(C)O.OCCN(CCO)CCO.OCCN(CCO)CCO.[Ti] = inactive

Kindly note the recorded AC50 for `Clc1cccc(Cl)c1Cl` , which is inactive

Kindly note the recorded AC50 for `O=C(O)COc1cc(Cl)c(Cl)cc1Cl` , which is inactive

Kindly note the recorded AC50 for `CCOc1cc(C=O)ccc1O` , which is inactive

----------
- measurement.description: CCTE_Shafer_MEA_dev_mutual_information_norm: CCTE's Neural Network Formation Assay for Mutual Information Normalization, Shafer Lab (AID 2284091)
Calls of active or inactive are those of the source. Rule for the calls: active = hit-call score of the fitted dose curve at least 0.9, where 1 is the maximum; inactive = score below 0.9.
Give your call using only these classes: class 1 for active, class 0 for inactive

Problem: // param item: `Cc1cc(C(F)(C(F)(F)F)C(F)(F)F)ccc1NC(=O)c1cccc(I)c1C(=O)NC(C)(C)CS(C)(=O)=O` ; yields the recorded call
Result: class 0

Problem: // param item: CC(C)[C@@H](Nc1ccc(C(F)(F)F)cc1Cl)C(=O)OC(C#N)c1cccc(Oc2ccccc2)c1 (some centres undefined) ; yields the recorded call
Result: class 1

Problem: // param item: `CC(=O)C(F)(F)C(F)(F)F` ; yields the recorded call
Result: class 0

Problem: // param item: `CCOCn1c(-c2ccc(Cl)cc2)c(C#N)c(Br)c1C(F)(F)F` ; yields the recorded call
Result: class 1

Problem: // param item: `CC(F)(F)CC(F)(F)F` ; yields the recorded call
Result: class 0

Problem: // param item: `O=S(=O)(F)C(F)(F)C(F)(F)C(F)(F)C(F)(F)F` ; yields the recorded call
Result: class 0

Problem: // param item: C=CC(F)(C(F)(F)F)C(F)(F)C(F)(F)F (centres undefined) ; yields the recorded call
Result: class 0

Problem: // param item: `NC(=O)c1ccc(N)nc1` ; yields the recorded call
Result: class 1

Problem: // param item: `CNC(=O)CSP(=O)(OC)OC` ; yields the recorded call
Result: class 0

----------
- Read-out: Vascular cell adhesion molecule 1 (VCAM1), VCAM1 (gene 7412)
- measurement.description: BSK_MyoF_VCAM1: BioMAP Diversity Plus: MyoF Assay for Vascular cell adhesion molecule 1 (VCAM1) Biomarker Activity (AID 2284231)
- experimental.conditions: primary human lung fibroblasts
Activity calls are given as the source filed them. Rule for the calls: active = hit-call score of the fitted dose curve at least 0.9, where 1 is the maximum; inactive = score below 0.9.
Give your call using only these classes: yes (1) for active, no (0) for inactive

Problem: // param item: `Cc1cc(C(C)(C)c2ccc(O)c(C)c2)ccc1O` ; yields the recorded call
Result: yes (1)

Problem: // param item: N#CCCC(Br)(C#N)CBr (configuration not stated) ; yields the recorded call
Result: yes (1)

Problem: // param item: `COCC(=O)N(c1c(C)cccc1C)[C@H](C)C(=O)OC` ; yields the recorded call
Result: no (0)

Problem: // param item: `O=S(=O)(C(Cl)(Cl)Cl)C(Cl)(Cl)Cl` ; yields the recorded call
Result: yes (1)

Problem: // param item: CCC(C)(C#N)N=NC(C)(C#N)CC (configuration not stated) ; yields the recorded call
Result: no (0)

Problem: // param item: `O=[N+]([O-])c1ccc(Nc2ccccc2)cc1` ; yields the recorded call
Result: no (0)

Problem: // param item: `Cc1ccc(OP(=O)(Oc2ccc(C)cc2C)Oc2ccc(C)cc2C)c(C)c1` ; yields the recorded call
Result: no (0)

Problem: // param item: OC(Cc1ccccc1Cl)(Cn1cncn1)C1(Cl)CC1 (configuration not stated) ; yields the recorded call
Result: no (0)

Problem: // param item: C=CC(Cl)CCl (configuration not stated) ; yields the recorded call
Result: yes (1)

Problem: // param item: `CCCCN(CCCC)C(=S)[S-].CCCCN(CCCC)C(=S)[S-].[Ni+2]` ; yields the recorded call
Result: no (0)

Problem: // param item: `O=C(CCl)NCO` ; yields the recorded call
Result: no (0)

Problem: // param item: `Oc1ccc(Cc2ccc(O)cc2)cc1` ; yields the recorded call
Result: no (0)

Problem: // param item: CC(C)(COCC1CO1)COCC1CO1 (configuration not stated) ; yields the recorded call
Result: no (0)

Problem: // param item: `c1ccc2sc(SNC3CCCCC3)nc2c1` ; yields the recorded call
Result: no (0)

Problem: // param item: `Cc1ccccc1OP(=O)(Oc1ccccc1)Oc1ccccc1` ; yields the recorded call
Result: yes (1)

Problem: // param item: `Cc1cccc(OP(=O)(Oc2cccc(C)c2)Oc2cccc(C)c2)c1` ; yields the recorded call
Result: no (0)

Problem: // param item: `O=[N+]([O-])c1cccc2ccccc12` ; yields the recorded call
Result: no (0)

Problem: // param item: `O=S(=O)(c1ccc(Cl)cc1)c1cc(Cl)c(Cl)cc1Cl` ; yields the recorded call
Result: no (0)

Problem: // param item: `Cc1ccccc1OP(=O)(Oc1ccccc1C)Oc1ccccc1C` ; yields the recorded call
Result: yes (1)

Problem: // param item: `[Cl][Sn]([c]1ccccc1)([c]1ccccc1)[c]1ccccc1` ; yields the recorded call
Result: yes (1)

Problem: // param item: CCOC(=O)C(SP(=S)(OC)OC)c1ccccc1 (configuration not stated) ; yields the recorded call
Result: no (0)

Problem: // param item: CC(C=O)Cc1ccc2c(c1)OCO2 (configuration not stated) ; yields the recorded call
Result: no (0)

Problem: // param item: `CCOP(=O)(OCC)SCCSCC` ; yields the recorded call
Result: no (0)

Problem: // param item: CC(C)=CC1C(C(=O)OCc2cccc(Oc3ccccc3)c2)C1(C)C (configuration not stated) ; yields the recorded call
Result: no (0)

Problem: // param item: Cc1cc(Cl)ccc1OC(C)C(=O)O (configuration not stated) ; yields the recorded call
Result: no (0)

Problem: // param item: `Nc1c(Oc2ccccc2)cc(O)c2c1C(=O)c1ccccc1C2=O` ; yields the recorded call
Result: no (0)

Problem: // param item: `CC(C)N(C(=O)CCl)c1ccccc1` ; yields the recorded call
Result: yes (1)
